Just for reference, ChEMBL document CHEMBL1146687 is where these values come from.

// MIC lookup, one value per entry
System: Enterococcus faecalis
measurement-description: In vitro antibacterial activity against Enterococcus faecalis
Format: functional
value-kind: MIC (µg/mL)

[
  {
    "input-smiles": "C=C(NC(=O)c1csc(-c2nc3c(cc2O)-c2nc(cs2)C(=O)N[C@@H]([C@@H](C)O)C(=O)N/C(=C(\\C)OC)c2nc(cs2)C(=O)N[C@@H]2c4nc(cs4)C(=O)N[C@@H](COC(=O)c4c5c6c(cccc6n4OCCCS(=O)(=O)O)COC(=O)[C@@H](O[C@H]4C[C@](C)(O)[C@H](N(C)C)[C@H](C)O4)[C@H]2OC5)c2nc-3cs2)n1)C(N)=O",
    "value-kind": "MIC",
    "unit-abbreviation": "µg/mL",
    "data-value": 0.125
  },
  {
    "input-smiles": "C=C(NC(=O)c1csc(-c2nc3c(cc2O)-c2nc(cs2)C(=O)N[C@@H]([C@@H](C)O)C(=O)N/C(=C(\\C)OC)c2nc(cs2)C(=O)N[C@@H]2c4nc(cs4)C(=O)N[C@@H](COC(=O)c4c5c6c(cccc6n4OCCn4ccnc4)COC(=O)[C@@H](O[C@H]4C[C@](C)(O)[C@H](N(C)C)[C@H](C)O4)[C@H]2OC5)c2nc-3cs2)n1)C(N)=O",
    "value-kind": "MIC",
    "unit-abbreviation": "µg/mL",
    "data-value": 1
  }
]
